study-system: RecQ-like DNA helicase BLM (Homo sapiens) (UniProt P54132)
Sequence (P54132 whole entry, looked up): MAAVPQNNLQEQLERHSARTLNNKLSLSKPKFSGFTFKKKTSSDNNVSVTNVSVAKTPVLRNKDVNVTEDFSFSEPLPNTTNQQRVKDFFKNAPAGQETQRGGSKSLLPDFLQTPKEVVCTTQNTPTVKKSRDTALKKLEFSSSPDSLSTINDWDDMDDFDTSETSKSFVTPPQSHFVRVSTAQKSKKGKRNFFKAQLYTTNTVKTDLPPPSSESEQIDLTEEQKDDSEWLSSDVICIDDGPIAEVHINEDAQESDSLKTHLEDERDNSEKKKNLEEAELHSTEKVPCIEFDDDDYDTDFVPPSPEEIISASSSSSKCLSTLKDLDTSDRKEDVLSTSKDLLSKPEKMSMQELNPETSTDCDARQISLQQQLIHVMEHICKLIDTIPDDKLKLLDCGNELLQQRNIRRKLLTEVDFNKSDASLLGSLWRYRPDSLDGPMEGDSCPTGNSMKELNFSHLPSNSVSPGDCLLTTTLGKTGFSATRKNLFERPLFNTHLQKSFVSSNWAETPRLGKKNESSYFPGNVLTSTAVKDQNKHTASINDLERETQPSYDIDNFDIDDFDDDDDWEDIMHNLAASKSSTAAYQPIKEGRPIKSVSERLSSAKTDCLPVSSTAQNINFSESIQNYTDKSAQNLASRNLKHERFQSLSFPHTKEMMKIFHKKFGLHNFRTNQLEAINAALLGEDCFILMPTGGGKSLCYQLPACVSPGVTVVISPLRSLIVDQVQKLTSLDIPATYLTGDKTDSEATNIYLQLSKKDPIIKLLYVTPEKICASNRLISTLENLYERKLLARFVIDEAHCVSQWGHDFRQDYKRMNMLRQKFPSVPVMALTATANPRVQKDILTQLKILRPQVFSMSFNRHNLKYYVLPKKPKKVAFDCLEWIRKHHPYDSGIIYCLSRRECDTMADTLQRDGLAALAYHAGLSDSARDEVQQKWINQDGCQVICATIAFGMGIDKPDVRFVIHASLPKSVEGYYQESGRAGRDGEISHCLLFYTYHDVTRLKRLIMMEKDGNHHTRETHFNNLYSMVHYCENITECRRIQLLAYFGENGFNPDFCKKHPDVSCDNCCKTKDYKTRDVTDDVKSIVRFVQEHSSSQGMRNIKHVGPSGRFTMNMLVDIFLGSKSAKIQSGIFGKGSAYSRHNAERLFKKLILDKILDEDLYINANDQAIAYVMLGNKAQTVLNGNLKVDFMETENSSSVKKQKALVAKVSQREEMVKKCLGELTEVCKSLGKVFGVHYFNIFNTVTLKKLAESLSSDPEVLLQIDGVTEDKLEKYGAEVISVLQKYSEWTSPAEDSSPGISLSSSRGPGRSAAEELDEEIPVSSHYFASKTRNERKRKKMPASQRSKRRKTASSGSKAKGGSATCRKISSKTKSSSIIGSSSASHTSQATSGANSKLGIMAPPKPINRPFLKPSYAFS
protocol-details: qHTS Assay for Inhibitors of Bloom's syndrome helicase (BLM); note: nearly all actives have a fitted effect of over 35% in size
applied-conditions: recombinant BLM DNA unwinding, fluorescence dequenching; series mostly up to 56.1 µM
Out of some 350,000 compounds screened, about 700 (0.2%) were called active. Calls come from the whole dose curve; as a rule, active = well fitted inhibition curve with a large enough effect; inconclusive = small, poorly fitted or top-dose-only effect; inactive = flat fitted curve, though single readings scatter. The sample as a whole holds a higher share of actives than the screen did.
Outcomes: active, inactive

molecule	class-assignment
COc1ccccc1CNc1cc(-c2ccccc2CN(C)C)ncn1	inactive
CC1CN(C(=O)N2CCC(C(=O)NCc3ccco3)CC2)c2cc(Cl)ccc2O1 (centres undefined)	inactive
COc1ccc(NC(=O)COc2ccc(C(=O)OCC(=O)N(C)C3CCS(=O)(=O)C3)cc2OC)cc1 (centres undefined)	inactive
CC(C)C[C@@H](CC(=O)N[C@@H](CCC(=O)O)CC(=O)O)NC(=O)[C@@H]1CCCC[C@H]1NC(=O)C[C@@H](NC(=O)C[C@H](Cc1c[nH]c2ccccc12)NC(=O)[C@@H]1CCCC[C@H]1N)C(C)C	inactive
CCOC(=O)C1=NO[C@@]2(C=C(Br)C(=O)[C@H]3O[C@H]32)C1	inactive
CC(=O)OCC(=O)C1CCC2C3CCC4=CC(=O)CC[C@@]4(C)C3CC[C@]12C (some centres undefined)	inactive
Cc1cccc(-c2nc(SCc3ccc(Br)cc3)n3[nH]c(=O)cc3n2)c1	inactive
Cc1c(S(=O)(=O)O)oc2c1C(=O)C(=O)c1c-2ccc2c1CCCC2(C)C	active
O=C(NCc1cccs1)c1cc(-c2ccccn2)nc2ccc(Br)cc12	inactive
COCCn1c(=O)c(CCc2ccccc2)nc2cnc(N3CCNCC3)nc21	inactive
CC(C)Cn1c(N)c(C(=O)NCc2cccs2)c2nc3ccccc3nc21	active
COC(=O)C1(C)C=CC2(CCCCC2)N1C(C)=O (centres undefined)	inactive
COc1cccc(Nc2nc(N)c([N+](=O)[O-])c(NCc3ccco3)n2)c1	active
CC1CC[C@@]23CCC4(C)[C@@]5(C)CCC6C(C)(C)C(O)CC[C@@]6(C)C5C=C[C@@]4(OC2=O)C3C1C (some centres undefined)	inactive
O=c1c(CCc2ccccc2)nc2cnc(N3CCNCC3)nc2n1Cc1cccs1	inactive
C=C(C)CNC(=S)N/N=C/c1ccccc1OCC(=O)O	inactive
COC1[C@H](OC(N)=O)C(O)[C@H](Oc2ccc3c(O)c(NC(=O)c4ccc(O)c(CC=C(C)C)c4)c(=O)oc3c2C)OC1(C)C (some centres undefined)	inactive
COc1ccc(NC(=O)CSc2nc(NS(=O)(=O)c3ccc(C)cc3)cc(=O)[nH]2)cc1	active
Cc1ccc(OCCCC(=O)Nc2ccc(S(=O)(=O)Nc3cc(C)nc(C)n3)cc2)cc1	inactive

* * *

study-system: RecQ-like DNA helicase BLM (Homo sapiens) (UniProt P54132)
protocol-details: qHTS Assay for Inhibitors of Bloom's syndrome helicase (BLM); note: nearly all actives have a fitted effect of over 35% in size; note: potency is the fitted concentration of half-maximal effect
applied-conditions: recombinant BLM DNA unwinding, fluorescence dequenching; series mostly up to 56.1 µM
Screen size: about 350,000 compounds; about 700 (0.2%) were called active. The entries come from a sample that favours actives as a whole.
measurement-label: Potency

                                   molecule            result
0  CCOC(=O)c1c(SCC(=O)Nc2cccc(C)c2C)nc(=O)[nH]c1C          inactive
1                     O=P(O)(O)OC[C@H](O)CO          inactive
2  Cc1ccc(NS(=O)(=O)c2ccc(N/N=C/c3ccccc3OCC(=O)O)c([N+](=O)[O-])c2)c(C)c1  7.08 µM (active)
3  CC(C)C1=CC2=CC[C@H]3[C@](C)(C(=O)O)CCC[C@]3(C)C2CC1 (stereo partly specified)          inactive
4     COC(=O)C(C(=O)OC)[C@@H](NC=O)c1ccccc1          inactive
5  CCOC(=O)c1c(C)[nH]c2c1-c1ccccc1C(=O)C2=O  2.82 µM (active)

* * *

study-system: RecQ-like DNA helicase BLM (Homo sapiens)
protocol-details: qHTS Assay for Inhibitors of Bloom's syndrome helicase (BLM); note: nearly all actives have a fitted effect of over 35% in size
applied-conditions: recombinant BLM DNA unwinding, fluorescence dequenching; series mostly up to 56.1 µM
The campaign covered roughly 350,000 compounds. About 700 (0.2%) were called active. The call rests on the fitted dose curve; in most records, active means well fitted inhibition curve with a large enough effect; inconclusive means small, poorly fitted or top-dose-only effect; inactive means flat fitted curve, though single readings scatter. The sample holds actives, similar compounds and a random draw of the others, so the mix is not that of the screen.
Outcomes: active, inactive

compound	study-system	class-assignment
Cc1cc(N=Nc2ccc3ccccc3c2)ccc1O	RecQ-like DNA helicase BLM (Homo sapiens)	inactive
CC1=C2[C@@H](O)[C@H]([C@@H](C)C(=O)NCCC(C)C)CC[C@@]2(C)C=CC1=O	RecQ-like DNA helicase BLM (Homo sapiens)	inactive
C=C[C@](C)(O)CCC1C(=C)CCC2[C@@](C)(CO)CCC[C@@]12C (some centres not stated)	RecQ-like DNA helicase BLM (Homo sapiens)	inactive
CCCC(=O)Nc1ccc(NC(=O)c2sc3ccccc3c2Cl)cc1	RecQ-like DNA helicase BLM (Homo sapiens)	inactive
O=C(O)c1cc(Cl)c(Cl)cc1C(=O)Nc1cccc2ncccc12	RecQ-like DNA helicase BLM (Homo sapiens)	inactive
COC(=O)[C@@H]1CC2=CC(=O)CC[C@]2(C)[C@@]23O[C@@H]2C[C@@]2(C)[C@@H](CC[C@@]24CCC(=O)O4)[C@H]13	RecQ-like DNA helicase BLM (Homo sapiens)	inactive
CC(C)(O)CCC(O)[C@@](C)(O)C1CC[C@]2(O)C3=CC(=O)C4CC(O)C(O)C[C@]4(C)C3CC[C@]12C (some centres not stated)	RecQ-like DNA helicase BLM (Homo sapiens)	inactive
COC(=O)[C@@]1(Cc2ccc(F)cc2)[C@@H]2[C@@H](CC(=O)[C@H]2CC(=O)C(=O)N2CCCC2)CN1C(=O)c1ccccc1	RecQ-like DNA helicase BLM (Homo sapiens)	inactive
COc1ccccc1CNc1ncnc2ccc(-c3c(C)noc3C)cc12	RecQ-like DNA helicase BLM (Homo sapiens)	inactive
CN(C)c1cccc(C(=O)Nc2nc3ccc(S(=O)(=O)NC(C)(C)C)cc3s2)c1	RecQ-like DNA helicase BLM (Homo sapiens)	inactive
O=C(CCOc1ccccc1)N(Cc1cccnc1)c1nc2ccc(Cl)cc2s1	RecQ-like DNA helicase BLM (Homo sapiens)	inactive
c1ccc(CSc2nnc(-c3ccco3)c(-c3ccco3)n2)cc1	RecQ-like DNA helicase BLM (Homo sapiens)	active
CCC(C)[C@@H](N)C(=O)O (some centres not stated)	RecQ-like DNA helicase BLM (Homo sapiens)	inactive
COC(=O)[C@@]1(Cc2ccc(OC)cc2)[C@H]2c3cc(C(=O)N4CCCC4)n(Cc4ccc(C(F)(F)F)nc4)c3C[C@H]2CN1C(=O)c1ccccc1	RecQ-like DNA helicase BLM (Homo sapiens)	inactive
O=C(c1cc2c(s1)CCC2)N1CCN(c2ccccc2)CC1	RecQ-like DNA helicase BLM (Homo sapiens)	active
O=C(c1cnccn1)N1CCC2(CCCN(Cc3ccccc3)C2)CC1	RecQ-like DNA helicase BLM (Homo sapiens)	inactive
COc1ccc2c(c1)O[C@@H](c1ccc3c(c1)OCO3)[C@H](OC(=O)NCc1ccco1)C2=O	RecQ-like DNA helicase BLM (Homo sapiens)	inactive
Cc1ccc(/C=C(\C#N)C(=O)Nc2cccc3ncccc23)o1	RecQ-like DNA helicase BLM (Homo sapiens)	active
Cn1c2ccccc2c(=O)c2c(=O)n(Cc3ccco3)c(COc3ccccc3)nc21	RecQ-like DNA helicase BLM (Homo sapiens)	active
Oc1ccc(N=Cc2sc3ccccc3c2Cl)cc1	RecQ-like DNA helicase BLM (Homo sapiens)	active
Oc1ccc(N=Cc2c(O)ccc3ccccc23)cc1	RecQ-like DNA helicase BLM (Homo sapiens)	active
CC1(C)N=C(SCc2ccccc2Cl)c2ccccc2N1	RecQ-like DNA helicase BLM (Homo sapiens)	inactive
O=S(O)S(=O)(=O)O	RecQ-like DNA helicase BLM (Homo sapiens)	inactive
CCCC[C@@H]1C[C@H]1C(NC(=O)c1ccco1)c1ccc(C(=O)OC)cc1 (some centres not stated)	RecQ-like DNA helicase BLM (Homo sapiens)	inactive
NS(=O)(=O)c1ccc2nc(NC(=O)COc3ccccc3)sc2c1	RecQ-like DNA helicase BLM (Homo sapiens)	inactive
OCCC(O)CO (configuration not stated)	RecQ-like DNA helicase BLM (Homo sapiens)	inactive
O=C(c1cc2ccccc2s1)N1CCN(c2ccccn2)CC1	RecQ-like DNA helicase BLM (Homo sapiens)	inactive
Cc1cc2nc(NC(=O)c3ccc(S(=O)(=O)N4CCOCC4)cc3)sc2cc1C	RecQ-like DNA helicase BLM (Homo sapiens)	inactive
c1ccc2c(Nc3ccncc3)nc(-c3ccc4c(c3)OCO4)nc2c1	RecQ-like DNA helicase BLM (Homo sapiens)	inactive
COc1ccc(OCCCn2c(C3CC(=O)N(c4ccc(F)cc4)C3)nc3ccccc32)cc1 (configuration not stated)	RecQ-like DNA helicase BLM (Homo sapiens)	inactive
CCCNC(=O)c1c(N)n(-c2ccc(S(N)(=O)=O)cc2)c2nc3ccccc3nc12	RecQ-like DNA helicase BLM (Homo sapiens)	active
CCOC(=O)c1ccc(-c2ccc(/C=C(\C#N)C(=O)Nc3ccc(OCC)cc3)o2)cc1	RecQ-like DNA helicase BLM (Homo sapiens)	inactive
O=C(NCCSc1ccccc1)c1ccco1	RecQ-like DNA helicase BLM (Homo sapiens)	inactive
CCC[C@@H]1C[C@@]1(CCC)C(NS(=O)(=O)c1cccc2cccnc12)c1ccc(Cl)cc1 (some centres not stated)	RecQ-like DNA helicase BLM (Homo sapiens)	inactive
Nc1ncn(C2OC(CO)C(O)C2O)c(=O)n1 (configuration not stated)	RecQ-like DNA helicase BLM (Homo sapiens)	inactive
Clc1ccccc1CSc1nnc(-c2ccco2)c(-c2ccco2)n1	RecQ-like DNA helicase BLM (Homo sapiens)	active
Cc1noc(C)c1C(=O)NCCc1ccc(S(N)(=O)=O)cc1	RecQ-like DNA helicase BLM (Homo sapiens)	inactive
Cc1ccc(N=C2NC(=O)/C(=C/C=C/c3ccco3)S2)cc1C	RecQ-like DNA helicase BLM (Homo sapiens)	active
O=C(c1ccco1)N1CCC[C@@]2(CCN(c3ccccc3)C2)C1	RecQ-like DNA helicase BLM (Homo sapiens)	inactive
Cc1ccc(-c2nnc(SCC(=O)NCc3ccccc3)nc2-c2ccc(C)cc2)cc1	RecQ-like DNA helicase BLM (Homo sapiens)	inactive
Oc1ccc(Cl)c2c1CCC2	RecQ-like DNA helicase BLM (Homo sapiens)	inactive
C=C1C([C@@]2(C)C(OC(C)=O)CC(=O)O[C@@](C)(COC(C)=O)C2CC(=O)OC)C(OC=O)C(OC(=O)C(O)C(C)CC)[C@]2(C)C(c3ccoc3)CC(=O)C12O (some centres not stated)	RecQ-like DNA helicase BLM (Homo sapiens)	inactive
